Collected Efficacy values appear next to each entry.
# tested.system: GABA-A receptor; alpha-5/beta-3/gamma-2 (Homo sapiens) (UniProt P18507+P28472+P31644)
# measurement.description: Efficacy was measured as modulation of the current in response to GABA at hGABA alpha-5-beta-3-gamma-2 receptor expressed in Xenopus oocytes
# Type: cell-based
# stated.conditions: Oocyte
Report the figure in % without appending any unit label.

Consider the following illustrative entries.
{"columns": ["smiles.str", "Efficacy / %"],
 "data": [
  ["Cc1cc(C)n(COc2nn3c(-c4ccccc4)nnc3c3c2C2CCC3CC2)n1", 1],
  ["CN1C(=O)CN=C(c2ccccc2)c2cc(Cl)ccc21", 106],
  ["c1ccc(-c2nnc3c4c(c(OCc5cccnn5)nn23)C2CCC4CC2)cc1", 39]
]}

So for CN(C)Cc1cccc(COc2nn3c(-c4ccccc4)nnc3c3c2C2CCC3CC2)c1 , the logged Efficacy turned out to be -25

So for Cn1cnc(COc2nn3c(-c4ccccc4)nnc3c3c2C2CCC3CC2)n1 , the logged Efficacy turned out to be 26

So for N#Cc1cccc(COc2nn3c(-c4ccccc4)nnc3c3c2C2CCC3CC2)c1 , the logged Efficacy turned out to be 23
